Target: PPARγ LBD, deletion of helix 12 / SMRT peptide
Assay: Fluorescence anisotropy, SMRT peptide to helix 12 deleted (DH12) PPARγ LBD
Type: binding
Conditions: run SMRT FP 4 10 18; read-out: SMRT dissociation constant, DH12
Metric Name: Kd (nM)

Smiles String	Result Units	Val
O=C(Nc1ccccc1)c1cc([N+](=O)[O-])ccc1Cl	nM	298

---

Target: PPARγ LBD (wt) / NCoR CoRNR box peptide (Homo sapiens, UniProt P37231)
Construct: 6× His tag with TEV recognition site (N, cleaved yes); made in house; host or cells: E. coli BL21 (DE3) gold
Sequence (P37231 230-505): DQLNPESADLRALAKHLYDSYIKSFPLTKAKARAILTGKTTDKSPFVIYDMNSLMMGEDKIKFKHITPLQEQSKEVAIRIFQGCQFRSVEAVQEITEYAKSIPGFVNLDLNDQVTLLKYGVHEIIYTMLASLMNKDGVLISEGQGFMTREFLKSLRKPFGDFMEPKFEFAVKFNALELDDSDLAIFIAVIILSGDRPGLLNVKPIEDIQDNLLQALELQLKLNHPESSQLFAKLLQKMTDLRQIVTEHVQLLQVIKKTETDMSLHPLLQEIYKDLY
Assay: Fluorescence anisotropy, NCoR peptide to wt PPARγ LBD (alone or ligand bound)
Format: binding
Conditions: read-out: NCoR Kd; WT, ligand-bound, run 2

Compound	Kd / µM
O=C(Nc1ccccc1)c1cc([N+](=O)[O-])ccc1Cl [GW9662]	0.157

---

Biological target: PPARg LBD N340A
Assay: Supplementary Figure 11: fluorescence anisotropy dissociation constants, N340A (peptide not given)
Details: read-out: dissociation constant, Average N340A values, average of the listed data sets
pKd: −log10 of the molar value.
Metric Name: pKd

Compound	Val
O=C(Nc1ccccc1)c1cc([N+](=O)[O-])ccc1Cl [GW9662]	6.31

---

Target: K329A PPARγ LBD / SMRT peptide (Homo sapiens, UniProt P37231, K329A)
Construct: 6× His tag with TEV recognition site (N, cleaved yes); made in house; host or cells: E. coli BL21 (DE3) gold
Sequence (P37231 230-505 K329A): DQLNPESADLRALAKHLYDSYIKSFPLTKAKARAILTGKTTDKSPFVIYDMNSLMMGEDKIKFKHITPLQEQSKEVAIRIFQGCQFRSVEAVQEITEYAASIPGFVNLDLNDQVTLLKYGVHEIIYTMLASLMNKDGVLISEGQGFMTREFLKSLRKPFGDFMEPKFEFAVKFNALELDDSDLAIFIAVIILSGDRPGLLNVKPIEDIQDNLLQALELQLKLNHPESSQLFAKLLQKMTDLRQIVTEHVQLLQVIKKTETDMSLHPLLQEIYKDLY
Assay: Fluorescence anisotropy, SMRT peptide to K329A PPARγ LBD
Assay type: binding
Details: run SMRT FP 4 5 18; read-out: SMRT dissociation constant, K329A

Smiles String	System Under Test	Kd (nM)
O=C(Nc1ccccc1)c1cc([N+](=O)[O-])ccc1Cl	K329A PPARγ LBD / SMRT peptide (Homo sapiens, UniProt P37231, K329A)	1330

---

Target: PPARγ LBD, deletion of helix 12 / NCoR peptide
Assay: Fluorescence anisotropy, NCoR peptide to helix 12 deleted (DH12) PPARγ LBD
Details: read-out: NCoR dissociation constant average, DH12; Supp. Fig. 11
pKd: −log10 of the molar value.
Metric Name: pKd

Smiles String	System Under Test	Metric Name	Val
O=C(Nc1ccccc1)c1cc([N+](=O)[O-])ccc1Cl	PPARγ LBD, deletion of helix 12 / NCoR peptide	pKd	7.03
